Source listed as BindingDB's records for doi:10.1021/jm801420y.

# assay-comment: Inhibition of SHH-mediated mouse C3H10T1/2 cells differentiation into osteoblasts by alkaline phosphatase assay
metric: IC50 (nM)

[
  {
    "structure": "CCCCCc1ccc(-c2ccc(/C=C/C(=O)N3CCCCC3)cc2)nc1",
    "unit-label": "nM",
    "IC50": 200
  },
  {
    "structure": "Cc1cccc(C)c1NC(=O)c1ccc(Nc2nc(-c3ccccc3)c3cccnc3n2)cc1",
    "unit-label": "nM",
    "IC50": 3.6
  },
  {
    "structure": "Cc1cccc(C)c1NC(=O)c1ccc(Nc2nc(C3CC3)c3ccccc3n2)cc1",
    "unit-label": "nM",
    "IC50": 2.8
  }
]

(A) CN1CCCc2ccc(NC(=O)c3ccc(Nc4nc(-c5ccccc5)c5ccccc5n4)cc3)cc21
(B) CCOc1cc(C(=O)Nc2ccc(Cl)c(-c3nc4ccccc4[nH]3)c2)cc(OCC)c1OCC
Parameter check: reported IC50 is higher for which label, A or B ? Refer to your chosen entry by its label in the reply.
B
(B: 30 nM, A: 5.8 nM)
